- Tested on: NCI-H1944
- run-description: normalised cell viability (NPI; 0 = phenylarsine oxide control, 1 = DMSO control) (fraction of DMSO control); higher = more viable cells (less compound toxicity)
- assay-context: glucocorticoid arm: hydrocortisone 2.75 uM co-treatment; compound 1 µM; 6 days
Structures can show the parent of a compound that is named as a salt. In all, about 1,900 compounds were measured (“normalised cell viability (NPI; 0 = phenylarsine oxide control, 1 = DMSO control)”: median about 1, lowest 2% from about 0.039 on). The entries come from a sample that favours the lowest values as a whole.
Measured normalised cell viability, listed per entry.
test-readout: normalised cell viability

C[N+](C)(C)CCO.[Br-] [Choline bromide] : 1.02
CC(=O)[C@]1(O)Cc2c(O)c3c(c(O)c2[C@@H](O[C@H]2C[C@H](N)[C@H](O)[C@H](C)O2)C1)C(=O)c1ccccc1C3=O [Idarubicin hydrochloride; Idarubicin; 4-DMD HCl] : 0.0183
COc1ccc(NC(=O)c2ccc(-c3ccc(-c4noc(C)n4)cc3C)cc2)cc1N1CCN(C)CC1 : 1.01
Cc1cnc(NC(=O)Nc2cc(Br)c(C)cc2OC[C@@H]2CNCCO2)cn1 : 1.03
COc1cccc2c1C(=O)c1c(O)c3c(c(O)c1C2=O)C[C@@](O)(C(C)=O)C[C@@H]3O[C@H]1C[C@H](N)[C@H](O)[C@H](C)O1 [Daunorubicin hydrochloride; Daunorubicin HCl] : 0.0398
CCN1C(=CC(C)=O)Sc2ccc(OC)cc21 : 0.982
CCCCC(=O)OCC(=O)[C@]1(O)Cc2c(O)c3c(c(O)c2[C@@H](O[C@H]2C[C@H](NC(=O)C(F)(F)F)[C@H](O)[C@H](C)O2)C1)C(=O)c1c(OC)cccc1C3=O : 0.665
CN(C(Cc1ccc(OS(=O)(=O)c2cccc3cnccc23)cc1)C(=O)N1CCN(c2ccccc2)CC1)S(=O)(=O)c1cccc2cnccc12 (stereo not given) : 1.02
O=C(O)[C@@H]1C[C@H](C(=O)O)N1 [cis-Azetidine-2,4-dicarboxylic acid] : 0.992
CC(=O)NC(C(=O)O)C(C)(C)SN=O (stereo not given) : 0.998
c1cncc(CN2CCC(n3ncc4c(N5CCOCC5)nc(-c5ccc6[nH]ccc6c5)nc43)CC2)c1 : 0.773
COc1ccc2c(c1)c(CC(=O)O)c(C)n2Cc1ccc(F)cc1 : 0.987
OC[C@H]1O[C@@H](n2cnc3c2N=CNC[C@H]3O)C[C@@H]1O : 1.02
Cn1c(=O)c2nc[nH]c2n(C)c1=O : 1
NCCC[C@](N)(C(=O)O)C(F)F (racemic) [DL-alpha-Difluoromethylornithine hydrochloride] : 0.985

----------
normalised cell viability for assorted molecules
- Test system: NCI-H1944;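 also: CTB read-out in 384-well plates, triplicate wells, NPI normalised per plate against 1 µM phenylarsine oxide (0) and 0.1% DMSO (1) controls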
- run-description: normalised cell viability (NPI; 0 = phenylarsine oxide control, 1 = DMSO control) (fraction of DMSO control); NCI-H1944 is a non-small cell lung cancer line; higher = more viable cells (less compound toxicity)
- assay-context: glucocorticoid arm: hydrocortisone 2.75 uM pre-treated 2 days and continued; compound 5 µM; 6 days
Structures can show the parent of a compound that is named as a salt. The full ranking holds about 1,900 compounds; the median of “normalised cell viability (NPI; 0 = phenylarsine oxide control, 1 = DMSO control)” is about 1, and the lowest 2% start at about 0.039. Only a selection was taken, and the lowest values are over-represented in it overall.
test-readout: normalised cell viability

CC(=O)Nc1ccc(C(=O)Nc2ccccc2N)cc1 [CI994 (Tacedinaline)] : 1.02
CO[C@@]12[C@H](COC(N)=O)C3=C(C(=O)C(C)=C(N)C3=O)N1C[C@@H]1N[C@@H]12 : 0.0028
CC(C)c1ccccc1Cc1cc(C(=O)Nc2ccc(S(=O)(=O)c3ccccc3C(C)(C)C)cc2)c(O)c(O)c1O : 0.961
Oc1cc2c(cc1O)C(c1ccccc1)CNCC2 (racemic) : 0.972
CCCCCCCCCCCCCCCC(=O)OC(CC(=O)O)C[N+](C)(C)C (racemic) [Palmitoyl-DL-Carnitine chloride] : 0.863
Cc1ccccc1N1CCN(S(=O)(=O)C[C@]23CC[C@H](C[C@@H]2NC(=O)[C@@H](N)CCS(C)(=O)=O)C3(C)C)CC1 [L-368,899 hydrochloride] : 1.01
Cc1cc(N)c2ccccc2[n+]1CCCCCCCCCC[n+]1c(C)cc(N)c2ccccc21 [Dequalinium chloride hydrate] : 0.0385
C=CCN1CCc2c(cc(O)c(O)c2Br)[C@@H](c2ccccc2)C1 [R(+)-6-Bromo-APB hydrobromide] : 1
CC(C)NCC(O)COc1ccc(CC(N)=O)cc1 (racemic) [(±)-Atenolol] : 1.02
CCCCCCCCCCCCCCCCCC(=O)OC(CC(=O)O)C[N+](C)(C)C (racemic) [DL-Stearoylcarnitine chloride] : 0.993
Nc1ccccc1NC(=O)c1ccc(CNC(=O)OCc2cccnc2)cc1 [Entinostat (MS-275)] : 0.302
C[N+](C)(C)CCO.[Br-] [Choline bromide] : 1.02
CN1CCc2c(cc(O)c(O)c2Cl)C(c2cccc(Cl)c2)C1 (configuration not stated) : 1.02
CCn1nnc2c(N3CCOCC3)nc(-c3ccc(NC(=O)Nc4ccc(C(=O)N5CCN(C)CC5)cc4)cc3)nc21 : 0.543
CCc1cnn2c(NCc3ccc[n+]([O-])c3)cc(N3CCCC[C@H]3CCO)nc12 : 0.153
CN(C)C1CCN(C(=O)c2ccc(NC(=O)Nc3ccc(-c4nc(N5CCOCC5)nc(N5CCOCC5)n4)cc3)cc2)CC1 : 0.147
OC[C@H]1O[C@@H](n2cnc3c(N[C@H]4CCC[C@@H]4O)ncnc32)[C@H](O)[C@@H]1O : 1.01
CCCCC1(C2CCCC2)Cc2cc(OCC(=O)O)c(Cl)c(Cl)c2C1=O (stereo in doubt) [R(+)-Butylindazone] : 0.965
CC(=O)Nc1ccc(C(=O)Nc2ccccc2N)cc1 : 1.06
Cc1nn(-c2ccccc2)c(C)c1C=NN1CCN(Cc2ccccc2)CC1 : 0.993
Cc1ccccc1/C=C/C1=NCCN1 [Metrazoline oxalate] : 0.987
Cc1cc(NC(=O)c2cccc(NC(=O)/C=C/CN(C)C)c2)ccc1Nc1nccc(-c2cccnc2)n1 : 0.917
Nc1ncnc2c1c(-c1cccc(OCc3ccccc3)c1)cn2C1CC(CN2CCC2)C1 (configuration not stated) : 0.436
Cc1ccccc1CNc1ncnc2c1ncn2[C@@H]1O[C@H](CO)[C@@H](O)[C@H]1O : 1.04
NC(=S)c1ccc[n+]([C@@H]2O[C@@H](COP(=O)([O-])OP(=O)(O)OC[C@H]3O[C@@H](n4cnc5c(N)ncnc54)C(OP(=O)(O)O)[C@H]3O)C(O)C2O)c1 (some centres not stated) [Thio-NADP sodium] : 0.998
N[C@H](C(=O)O)[C@H]1C[C@@H]1C(=O)O : 0.978
Nc1ccccc1NC(=O)c1ccc(CNC(=O)OCc2cccnc2)cc1 [Entinostat] : 0.0766
C[C@H]1C[C@H]2[C@@H]3CCC4=CC(=O)C=C[C@]4(C)[C@@]3(Cl)[C@@H](O)C[C@]2(C)[C@@]1(O)C(=O)CO : 1
Cc1ccc(NC(=O)c2ccc(CN3CCN(C)CC3)cc2)cc1Nc1nccc(-c2cccnc2)n1 [Imatinib Mesylate] : 1.1
COC(=O)Nc1ccc(-c2nc(N3CCOCC3)c3cnn(C4CCN(C(=O)OC)CC4)c3n2)cc1 : 0.769
CCCn1c(=O)c2[nH]c(-c3ccc(S(=O)(=O)O)cc3)nc2n(CCC)c1=O : 0.986
COc1ccc(C(=O)NCc2cccnc2)cc1C(=O)NCc1cccnc1 [Picotamide] : 1
